test system: ErbB4 on neonatal rat cardiomyocytes (rat) (UniProt Q62956)
Sequence (Q62956 26-1308): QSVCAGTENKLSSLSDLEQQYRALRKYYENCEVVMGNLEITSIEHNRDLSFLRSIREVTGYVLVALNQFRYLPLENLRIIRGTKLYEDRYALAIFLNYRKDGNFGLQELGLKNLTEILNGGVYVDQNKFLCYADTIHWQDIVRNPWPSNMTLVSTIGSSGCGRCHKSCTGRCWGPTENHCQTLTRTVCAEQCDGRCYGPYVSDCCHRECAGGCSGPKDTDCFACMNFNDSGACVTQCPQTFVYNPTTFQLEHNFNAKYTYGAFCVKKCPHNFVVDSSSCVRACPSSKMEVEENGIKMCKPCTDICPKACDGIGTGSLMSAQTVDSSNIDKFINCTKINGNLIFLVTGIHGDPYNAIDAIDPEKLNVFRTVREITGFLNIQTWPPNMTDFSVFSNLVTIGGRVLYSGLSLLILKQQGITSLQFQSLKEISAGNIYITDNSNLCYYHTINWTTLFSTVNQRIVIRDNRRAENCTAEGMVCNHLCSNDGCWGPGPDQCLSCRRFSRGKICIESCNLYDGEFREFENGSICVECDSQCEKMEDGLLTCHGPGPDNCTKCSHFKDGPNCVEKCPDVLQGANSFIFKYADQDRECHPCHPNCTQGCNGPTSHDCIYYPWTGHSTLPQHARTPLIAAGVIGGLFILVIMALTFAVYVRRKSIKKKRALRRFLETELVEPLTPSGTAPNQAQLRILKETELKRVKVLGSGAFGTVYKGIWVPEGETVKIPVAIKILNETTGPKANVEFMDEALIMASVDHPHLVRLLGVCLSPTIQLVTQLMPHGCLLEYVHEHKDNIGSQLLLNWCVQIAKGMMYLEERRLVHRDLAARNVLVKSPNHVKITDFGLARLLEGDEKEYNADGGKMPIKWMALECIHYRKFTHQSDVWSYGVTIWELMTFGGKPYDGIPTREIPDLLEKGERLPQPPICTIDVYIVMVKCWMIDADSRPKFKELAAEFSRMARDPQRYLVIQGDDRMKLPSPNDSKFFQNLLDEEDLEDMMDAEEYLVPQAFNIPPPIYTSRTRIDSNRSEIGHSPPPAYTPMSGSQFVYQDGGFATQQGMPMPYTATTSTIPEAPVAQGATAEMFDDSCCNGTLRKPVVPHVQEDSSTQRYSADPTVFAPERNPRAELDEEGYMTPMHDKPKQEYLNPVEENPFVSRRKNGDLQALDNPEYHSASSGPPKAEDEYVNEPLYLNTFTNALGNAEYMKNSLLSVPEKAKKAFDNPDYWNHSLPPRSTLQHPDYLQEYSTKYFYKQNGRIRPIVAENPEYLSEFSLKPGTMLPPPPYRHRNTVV
assay text: cell-based or functional assay
observable: CM % Agonism AVG (%)
Report the value in % with no unit label.

The cases that follow already have their CM % Agonism AVG on record.
Returns the measured CM % Agonism AVG for the input binder. Input: huNRG1(S177-Q237)(NRGE1F)::GG::huFcSEFL2 (Pb) (Fc fusion) SHLVKCAENDKSFCVNGGECYMVEGSSIPSRYLCKCPNEFTGDRCQNDFMASFYKAEELYQGGDKTHTCPPCPAPELLGGPSVFLFPPKPKDTLMISRTPEVTCVVVDVSHEDPEVKFNWYVDGVEVHNAKTKPCEEQYGSTYRCVSVLTVLHQDWLNGKEYKCKVSNKALPAPIEKTISKAKGQPREPQVYTLPPSREEMTKNQVSLTCLVKGFYPSDIAVEWESNGQPENNYKTTPPVLDSDGSFFLYSKLTVDKSRWQQGNVFSCSVMHEALHNHYTQKSLSLSPGK
90

Entry under review: huNRG1(S177-Q237)(NRGE1L)::GG::huFcSEFL2 (Pb) (Fc fusion) SHLVKCGESHKSFCVNGGECYMVEGSSIPSRYLCKCPNEFTGDRCQDDFMASFYKAEELYQGGDKTHTCPPCPAPELLGGPSVFLFPPKPKDTLMISRTPEVTCVVVDVSHEDPEVKFNWYVDGVEVHNAKTKPCEEQYGSTYRCVSVLTVLHQDWLNGKEYKCKVSNKALPAPIEKTISKAKGQPREPQVYTLPPSREEMTKNQVSLTCLVKGFYPSDIAVEWESNGQPENNYKTTPPVLDSDGSFFLYSKLTVDKSRWQQGNVFSCSVMHEALHNHYTQKSLSLSPGK . Reported CM % Agonism AVG?
74

What value of measured CM % Agonism AVG is listed for huNRG1(S177-Q237)(NRGE1E)::GG::huFcSEFL2 (Pb) (Fc fusion) SHLVKCGENDKSFCVNGGECFMIEGPSNPSRYLCKCPNEFTGDRCQNDFMASFYKAEELYQGGDKTHTCPPCPAPELLGGPSVFLFPPKPKDTLMISRTPEVTCVVVDVSHEDPEVKFNWYVDGVEVHNAKTKPCEEQYGSTYRCVSVLTVLHQDWLNGKEYKCKVSNKALPAPIEKTISKAKGQPREPQVYTLPPSREEMTKNQVSLTCLVKGFYPSDIAVEWESNGQPENNYKTTPPVLDSDGSFFLYSKLTVDKSRWQQGNVFSCSVMHEALHNHYTQKSLSLSPGK ?
83

GET /values?readout=CM % Agonism AVG&item= huNRG1(S177-F229)(NRGE1D) (E47K_D48L_F49D_M50I) 6xHis (ligand) SHLVKCGESHKSFCVNGGECYMVEGSSIPSRYLCKCPNEFTGDRCQKLDIASFGGGGEGGGGAGGGGHHHHHH
91.7

Attention now shifts to the item below.
Record request: CM % Agonism AVG value, item huNRG1(S177-F229)(NRGE1C) (E47K_D48T_F49S_M50L) 6xHis (ligand) SHLVKCGEKHKSFCVNGGECFMIEGPSNPSRYLCKCPNEFTGDRCQKTSLASFGGGGEGGGGAGGGGHHHHHH
91.8
